Target: T1, VACV A27 protein (vaccinia virus, UniProt P11258 1-110)
T1 sequence: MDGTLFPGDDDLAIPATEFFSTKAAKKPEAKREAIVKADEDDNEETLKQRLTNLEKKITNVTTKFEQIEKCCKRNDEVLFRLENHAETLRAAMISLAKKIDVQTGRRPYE
Test: purified antigen ELISA
measured_quantity: EC50
Give me the value, and tack the unit on after it.

Task: Query: EC50; subject: VACV-154 (antibody, V domains shown, human IgG1, anti-A27) VH: EVQLLESGGGLVQPGESLRLSCAASGFTLRNYAMSWVRQTPGKGLEWVSAISGSGGSTYYADSVKGRFTISRDTSKNTLYVQMNSLRAEDTAVYYCAKIRLDSSGYSGAFDIWGQGTRVTVSS VL: SYELTQPPSVSVSPGQTARITCSGDALPKQYASWYQQKPGQAPVLVIYKDSERPSGIPERFSGSSSGTTVTLTISGVQAEDEADYYCQSADSSGTYPVVFGGGTQLTVL
Result: 0.06 µg/mL

Task: Query: EC50; subject: VACV-301 (antibody, V domains shown, human IgG3, anti-A27) VH: EVQLLESGGGLVQPGGSLRLSCAASGFSFSSYAMSWVRQAPGKGLEWVSGIGNSGDRTFYADSAKGRFTIFRDNSNNRLYLQMNSLRAADTAVYYCAKWGRFESGAFWGQGVLVTVSS VL: SYELTQSPSVSVSPGQTARITCSGDALPEQYAYWYQQKPGQAPVLVIYKDSERPSGIPERFSGSGSGTTVTLTITGVQAEDEADYYCQSADNSGTYEVFGTGTKVTVL
Result: 0.03 µg/mL

Next:
Task: Query: EC50; subject: VACV-303 (antibody, V domains shown, human IgG1, anti-A27) VH: EVQLLESGGGLVQPGGSLRLSCAASGFTFSSYAMSWVRQAPGKGLEWVSAISGTGGNTYYADSVKGRFTISRDKSKNTLYLQMHSLRAEDTAVYYCATSLIWWLQSDYWGQGTLVTVSS VL: DIQMTQSPSSLSASVGDRVTITCRASQSIASYLIWYQQKPGNAPKLLIYAASSLQSGVPSRFSGSGSGTDFTLTISSLQPEDFATYYCQQSYSTPQTFGQGTKVDIK
Result: 0.02 µg/mL

Task: Query: EC50; subject: VACV-300 (antibody, V domains shown, human IgG1, anti-A27) V domain 1: QVQLVQSGAEVKKPGSSVKVSCKASGGTFSSYAISWVRQAPGQGLEWMGGIIPIFGTANYAQKFQGRVTITADESTGTAYMELTSLRSEDTAIYYCARASEQWLASINWFDPWGQGTLVTVSS V domain 2: QSALTQPASVSGSPGQSITISCTGTSSDVGSYNLVSWYQQHPGKAPKLMIYEVSKRPSGVSNRFSASKSGNTASLTISGLQAEDEADYYCCSYAGSSTLVFGGGTQVTVL
Result: 0.22 µg/mL
